# target_or_system: native mouse MET on living mouse cells (mouse, UniProt P16056 25-1379)
# assay_summary: cell-based or functional assay
recorded_endpoint: cell scattering score, MLP29, 0.001 nM (score 0-4)
Give just the number in score 0-4; leave the unit off.

Consider the reported cell scattering score, MLP29, 0.001 nM for these binders:
chimeric llama-human IgG1 mAb 71C3 (antibody, V domains shown) VH: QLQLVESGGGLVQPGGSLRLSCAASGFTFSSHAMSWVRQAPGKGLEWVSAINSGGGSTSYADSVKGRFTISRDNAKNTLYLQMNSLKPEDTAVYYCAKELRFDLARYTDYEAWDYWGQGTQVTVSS VL: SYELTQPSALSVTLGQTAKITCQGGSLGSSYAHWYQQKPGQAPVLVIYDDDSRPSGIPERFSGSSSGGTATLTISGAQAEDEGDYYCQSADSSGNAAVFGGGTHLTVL: 0
chimeric llama-human IgG1 mAb 76H10 (antibody, V domains shown) VH: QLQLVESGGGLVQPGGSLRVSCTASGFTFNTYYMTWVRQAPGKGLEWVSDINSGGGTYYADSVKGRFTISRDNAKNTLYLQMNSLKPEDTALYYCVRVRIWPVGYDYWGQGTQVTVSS VL: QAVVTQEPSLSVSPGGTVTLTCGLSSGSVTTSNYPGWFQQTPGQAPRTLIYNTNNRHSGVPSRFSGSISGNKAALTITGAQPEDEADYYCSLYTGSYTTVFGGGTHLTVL: 0

Now consider a different binder.
Consider the binder chimeric llama-human IgG1 mAb 71D4 (antibody, V domains shown) VH: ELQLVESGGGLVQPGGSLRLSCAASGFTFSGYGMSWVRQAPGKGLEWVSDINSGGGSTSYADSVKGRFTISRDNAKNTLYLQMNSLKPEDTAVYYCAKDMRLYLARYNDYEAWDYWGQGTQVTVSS VL: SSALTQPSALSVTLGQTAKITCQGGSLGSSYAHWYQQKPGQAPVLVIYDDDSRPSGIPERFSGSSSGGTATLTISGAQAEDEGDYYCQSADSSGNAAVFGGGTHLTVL and give its measured cell scattering score, MLP29, 0.001 nM.
0
